Molecular target: ExoVII (Escherichia coli)
Sequence (P04994 whole entry): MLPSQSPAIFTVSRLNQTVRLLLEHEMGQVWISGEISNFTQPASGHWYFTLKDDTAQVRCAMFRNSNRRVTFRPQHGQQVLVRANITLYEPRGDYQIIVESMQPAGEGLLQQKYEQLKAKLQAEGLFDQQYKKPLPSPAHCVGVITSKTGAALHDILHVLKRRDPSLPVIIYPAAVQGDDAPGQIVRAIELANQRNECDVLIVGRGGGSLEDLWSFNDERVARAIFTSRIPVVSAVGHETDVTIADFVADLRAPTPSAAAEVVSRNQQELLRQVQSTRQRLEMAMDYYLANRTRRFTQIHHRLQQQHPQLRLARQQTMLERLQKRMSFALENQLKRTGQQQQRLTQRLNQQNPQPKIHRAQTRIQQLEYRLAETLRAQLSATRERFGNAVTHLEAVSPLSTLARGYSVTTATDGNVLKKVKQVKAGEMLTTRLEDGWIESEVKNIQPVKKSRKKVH
Sequence (P0A8G9 whole entry, further chain): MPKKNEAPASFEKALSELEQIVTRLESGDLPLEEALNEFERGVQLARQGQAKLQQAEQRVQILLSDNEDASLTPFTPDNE
endpoint_name: pIC50
Answers are plain numbers, as −log10 of the molar value.

Entry O=C1Cc2ccc(-c3cccc(Cl)c3)cc2C(=O)N1 ; pIC50 = 5.61
